The measured values listed here are drawn from PubChem BioAssay.

# Test system: Neuregulin-1 EGF-like domain
# protocol-text: binders of neuregulin-1 EGF-like domain, primary screen, biochemical, small-molecule microarray, 635 nm fluorescence (AID 1081);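 further: binding of the protein to compounds printed on small-molecule microarray slides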
# conditions: small-molecule microarray binding, higher = more signal
Label T when composite z-score >= 1; otherwise F.

compound: CCOC(=O)C[C@H]1[C@H](OC(=O)Cc2ccc3c(c2)OCO3)[C@@H](NC(=O)C2CCCCC2)c2cc(OCCCO)ccc2N1C(=O)c1ccc2ccccc2n1
assigned-label: F
//
compound: COCCCNC(=O)[C@@H]1c2ccccc2C(=O)N(Cc2ccccc2C(F)(F)F)[C@H]1c1ccc(CO)cc1
assigned-label: T
//
compound: Cc1ccc(F)cc1S(=O)(=O)N[C@@H]1CCN(Cc2ccc(Oc3ccccc3)cc2)C1
assigned-label: F
//
compound: COCCOC(=O)N1C(=O)[C@@]2(c3cc(C#Cc4ccc(OC)cc4)ccc31)[C@H](C(=O)NC[C@H](O)c1ccccc1)[C@H]1C(=O)O[C@H](c3ccccc3)[C@H](c3ccccc3)N1[C@@H]2c1ccc(O)cc1
assigned-label: T
//
compound: CN(C)CCCCNC(=O)[C@H]1C[C@H]2C(=O)N[C@@H](CCCCN(C)C)C(=O)N2[C@H]1c1cccc(OCCO)c1
assigned-label: T
//
compound: C=C(CCCC)C(=O)CC[C@@H](OC(=O)c1cccnc1)c1ccccc1OCCO
assigned-label: F
//
compound: CO[C@H]1O[C@H](CO)[C@@H](OC(=O)Nc2ccc(Oc3ccccc3)cc2)[C@H](OC(=O)Nc2ccccc2-c2ccccc2)[C@@H]1OC(=O)Nc1ccccc1-c1ccccc1
assigned-label: T
//
compound: C[n+]1ccc(CCCO)cc1
assigned-label: T
//
compound: CC(C)C[C@@H]1NC(=O)[C@H]2C[C@@H](C(=O)NCCCCCC[N+](C)(C)C)[C@@H](c3cccc(OCCO)c3)N2C1=O
assigned-label: T
//
compound: O=C1C[C@@](C(=O)NCC(F)(F)F)(c2ccc([N+](=O)[O-])cc2)[C@@H](c2ccc(CO)cc2)N1C1CCCCC1
assigned-label: T
//
compound: CC(C)OC(=O)CC(=O)CC(O)c1cccc(C#N)c1 (stereo not given)
assigned-label: F
//
compound: COc1ccccc1CN1C(=O)c2ccccc2[C@](Cc2ccccc2I)(C(=O)NC(C)C)[C@@H]1c1ccc(CO)cc1
assigned-label: T
//
compound: O=C1c2ccccc2[C@](Cc2ccccc2I)(C(=O)NCc2ccccc2)[C@H](c2ccc(CO)cc2)N1C1CCCCC1
assigned-label: T
//
compound: [N-]=[N+]=NCc1ccccc1C[C@@]1(C(N)=O)N=C(c2ccc(OCCCO)cc2)O[C@@H]1c1ccccc1CN=[N+]=[N-]
assigned-label: T
//
compound: COC(=O)[C@@]1(Cc2ccccc2)[C@H]2c3cc(C(=O)N4CCCC4)n(Cc4ccsc4Br)c3C[C@H]2CN1C(=O)c1ccccc1
assigned-label: T
